target: Advanced glycosylation end product-specific receptor (Homo sapiens); test: Inhibition of human RAGE-amyloid beta-42 interaction at 4 uM preincubated for 30 mins measured after 1 hr by FRET assay relative to control
Calls of active or inactive are those of the source. The rule behind the calls is not given here.
observable: inhibition

[
  {
    "chem-smiles": "FC(F)(F)c1cccc(Oc2ccc3nc(-c4ccc(OCCCN5CCCCC5)cc4)oc3c2)c1",
    "system-tested": "Advanced glycosylation end product-specific receptor (Homo sapiens)",
    "result": "42.7%"
  },
  {
    "chem-smiles": "CCN(CC)CCCOc1ccc(-c2nc3ccc(Oc4ccc(F)cc4)cc3o2)cc1",
    "system-tested": "Advanced glycosylation end product-specific receptor (Homo sapiens)",
    "result": "5.4%"
  },
  {
    "chem-smiles": "CCOC(=O)N1CCN(CCCOc2ccc(-c3nc4ccc(Oc5ccc(Cl)cc5)cc4o3)cc2)CC1",
    "system-tested": "Advanced glycosylation end product-specific receptor (Homo sapiens)",
    "result": "6.6%"
  },
  {
    "chem-smiles": "CC(C)(C)OC(=O)N1CCN(CCCOc2ccc(-c3nc4ccc(Oc5ccc(C(F)(F)F)cc5)cc4o3)cc2)CC1",
    "system-tested": "Advanced glycosylation end product-specific receptor (Homo sapiens)",
    "result": "27.8%"
  },
  {
    "chem-smiles": "CC(C)(C)OC(=O)N1CCN(CCCOc2ccc(-c3nc4ccc(Oc5ccc(F)cc5)cc4o3)cc2)CC1",
    "system-tested": "Advanced glycosylation end product-specific receptor (Homo sapiens)",
    "result": "21%"
  },
  {
    "chem-smiles": "Fc1ccc(Oc2ccc3nc(-c4ccc(OCCCN5CCOCC5)cc4)oc3c2)cc1",
    "system-tested": "Advanced glycosylation end product-specific receptor (Homo sapiens)",
    "result": "56.7%"
  },
  {
    "chem-smiles": "CC(C)(C)OC(=O)N1CCC(Oc2ccc(-c3nc4ccc(Oc5ccc(Cl)cc5)cc4o3)cc2)CC1",
    "system-tested": "Advanced glycosylation end product-specific receptor (Homo sapiens)",
    "result": "inactive"
  },
  {
    "chem-smiles": "Clc1ccc(Oc2ccc3nc(-c4ccc(OCCCN5CCN(c6ncccn6)CC5)cc4)oc3c2)cc1",
    "system-tested": "Advanced glycosylation end product-specific receptor (Homo sapiens)",
    "result": "25.1%"
  },
  {
    "chem-smiles": "CC(C)(C)OC(=O)N[C@H]1CCN(CCCOc2ccc(-c3nc4ccc(Oc5ccc(C(C)(C)C)cc5)cc4o3)cc2)C1",
    "system-tested": "Advanced glycosylation end product-specific receptor (Homo sapiens)",
    "result": "61.6%"
  },
  {
    "chem-smiles": "CC(C)N1CCC(COc2ccc(-c3nc4ccc(Oc5ccc(Cl)cc5)cc4o3)cc2)CC1",
    "system-tested": "Advanced glycosylation end product-specific receptor (Homo sapiens)",
    "result": "26.2%"
  },
  {
    "chem-smiles": "Clc1ccc(Oc2ccc3nc(-c4ccc(OCC5CCN(Cc6ccccc6)CC5)cc4)oc3c2)cc1",
    "system-tested": "Advanced glycosylation end product-specific receptor (Homo sapiens)",
    "result": "5.1%"
  },
  {
    "chem-smiles": "Clc1ccc(Oc2ccc3nc(-c4ccc(OCCCN5CCOCC5)cc4)oc3c2)cc1",
    "system-tested": "Advanced glycosylation end product-specific receptor (Homo sapiens)",
    "result": "inactive"
  },
  {
    "chem-smiles": "Clc1ccc(Oc2ccc3nc(-c4ccc(OCC5CCNCC5)cc4)oc3c2)cc1",
    "system-tested": "Advanced glycosylation end product-specific receptor (Homo sapiens)",
    "result": "inactive"
  },
  {
    "chem-smiles": "CC(C)(C)c1ccc(Oc2ccc3nc(-c4ccc(OCCCN5CCOCC5)cc4)oc3c2)cc1",
    "system-tested": "Advanced glycosylation end product-specific receptor (Homo sapiens)",
    "result": "inactive"
  },
  {
    "chem-smiles": "CC(=O)N1CCC(Oc2ccc(-c3nc4ccc(Oc5ccc(Cl)cc5)cc4o3)cc2)CC1",
    "system-tested": "Advanced glycosylation end product-specific receptor (Homo sapiens)",
    "result": "20%"
  },
  {
    "chem-smiles": "CC(C)(C)c1ccc(Oc2ccc3nc(-c4ccc(OCCCN5CCCC5)cc4)oc3c2)cc1",
    "system-tested": "Advanced glycosylation end product-specific receptor (Homo sapiens)",
    "result": "inactive"
  },
  {
    "chem-smiles": "CC(C)OC(=O)N1CCN(CCCOc2ccc(-c3nc4ccc(Oc5ccc(Cl)cc5)cc4o3)cc2)CC1",
    "system-tested": "Advanced glycosylation end product-specific receptor (Homo sapiens)",
    "result": "25.9%"
  },
  {
    "chem-smiles": "CC(C)(C)c1ccc(Oc2ccc3nc(-c4ccc(OCCCN5CC[C@H](N)C5)cc4)oc3c2)cc1",
    "system-tested": "Advanced glycosylation end product-specific receptor (Homo sapiens)",
    "result": "54.7%"
  }
]
